Biological target: BTK (Homo sapiens (Human))
Sequence (Q06187 whole entry, species assumed): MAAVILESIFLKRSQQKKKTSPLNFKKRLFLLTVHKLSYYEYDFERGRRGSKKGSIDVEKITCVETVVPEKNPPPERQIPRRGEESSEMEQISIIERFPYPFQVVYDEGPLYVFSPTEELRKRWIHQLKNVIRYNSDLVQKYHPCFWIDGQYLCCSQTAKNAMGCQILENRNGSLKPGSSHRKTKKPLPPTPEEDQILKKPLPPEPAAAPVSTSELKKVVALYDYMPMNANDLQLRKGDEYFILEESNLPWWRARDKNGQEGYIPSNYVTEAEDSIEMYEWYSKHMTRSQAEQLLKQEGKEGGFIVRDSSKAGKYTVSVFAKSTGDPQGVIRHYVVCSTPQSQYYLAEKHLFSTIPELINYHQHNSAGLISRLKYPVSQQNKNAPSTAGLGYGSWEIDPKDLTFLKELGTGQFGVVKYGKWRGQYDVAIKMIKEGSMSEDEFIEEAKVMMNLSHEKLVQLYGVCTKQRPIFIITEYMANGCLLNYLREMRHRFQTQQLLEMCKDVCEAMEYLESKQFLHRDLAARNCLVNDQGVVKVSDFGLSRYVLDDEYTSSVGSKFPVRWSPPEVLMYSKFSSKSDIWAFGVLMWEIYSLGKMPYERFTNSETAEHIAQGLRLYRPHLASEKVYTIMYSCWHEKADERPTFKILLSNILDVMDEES
Assay: IC50 against BTK
Type: biochemical
metricName: IC50

// below: answered compounds
>  <lineNotation>
C=CC(=O)N1CCN(C(=O)c2cc(Sc3cnc(NC(=O)C4CC4)s3)ccc2OC)C[C@H]1C

>  <IC50>
≥ 10000 nM

$$$$
>  <lineNotation>
C=CC(=O)N1CCN(C(=O)c2cc(Sc3cnc(NC(=O)c4ccsc4)s3)c(C)cc2OC)C[C@H]1CC

>  <IC50>
10 to 100 nM

$$$$
>  <lineNotation>
C=CC(=O)N1CCC2(C1)CN(C(=O)c1cc(Sc3cnc(Nc4ccccn4)s3)c(C)cc1OC)C2

>  <IC50>
10 to 100 nM

$$$$
>  <lineNotation>
C=CC(=O)N1CCN(C(=O)c2cc(Sc3cnc(NC(=O)c4cnsc4)s3)c(C)cc2C)C[C@H]1CC

>  <IC50>
100 to 1000 nM

$$$$
>  <lineNotation>
C=CC(=O)N1CCN(C(=O)c2cc(Sc3cnc(NC(=O)c4cnn(CCN(C)C)c4)s3)c(C)cc2OC)C[C@H]1CC

>  <IC50>
100 to 1000 nM

$$$$

**Q:** API: value(readout= IC50, system= BTK (Homo sapiens (Human)), query= "C=CC(=O)N1CCN(C(=O)c2cccc(Cc3cnc(NC(=O)C4CC4)s3)c2)CC1" )
**A:** 100 to 1000 nM

**Q:** And for "C=CC(=O)N1CCCN(C(=O)c2cc(Sc3cnc(NC(=O)C4CC4)s3)c(C)cc2C)C[C@H]1C" ?
**A:** 1000 to 10000 nM

**Q:** And for "C=CC(=O)N1CCN(C(=O)c2cc(Sc3cnc(NC(=O)c4cccc(CN(C)C)c4)s3)c(C)cc2C)C[C@H]1CC" ?
**A:** 10 to 100 nM

**Q:** And for "C=CC(=O)N1CCN(C(=O)c2cc(Sc3cnc(NC(C)=O)s3)c(C)cc2OC)C[C@@H]1C" ?
**A:** 100 to 1000 nM

**Q:** And for "C=CC(=O)N1[C@@H]2CC[C@H]1CN(C(=O)c1cc(Sc3cnc(NC(=O)C4CC4)s3)c(C)cc1OC)C2" ?
**A:** 10 to 100 nM

**Q:** And for "C=CC(=O)N1CCCN(C(=O)c2cc(Sc3cnc(NC(=O)C4CC4)s3)c(C)cc2F)C[C@H]1C" ?
**A:** ≥ 10000 nM
